# tested_on: alcohol dehydrogenase from L. brevis (Levilactobacillus brevis)
# Sequence (Q84EX5 2-252): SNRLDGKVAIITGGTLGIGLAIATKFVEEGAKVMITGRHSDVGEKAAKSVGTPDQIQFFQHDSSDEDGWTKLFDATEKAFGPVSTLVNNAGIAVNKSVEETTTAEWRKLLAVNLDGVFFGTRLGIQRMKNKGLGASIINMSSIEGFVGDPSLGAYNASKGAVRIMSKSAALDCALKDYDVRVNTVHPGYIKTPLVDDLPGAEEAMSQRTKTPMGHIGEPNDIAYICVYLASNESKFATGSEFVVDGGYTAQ
# method: biochemical
# Assay type: biochemical
# experimental_setup: relative to acetophenone = 100; 10 mM keto compound; read-out: Relative act.
parameter: activity at 10000 µM

molecule	tested_on	measured
CCOC(=O)CC(=O)c1ccccc1 [benzoyl acetic acid ethyl ester]	alcohol dehydrogenase from L. brevis (Levilactobacillus brevis)	35%
CC(=O)c1cccc2ccccc12 [methyl-1-naphthyl ketone]	alcohol dehydrogenase from L. brevis (Levilactobacillus brevis)	37%
CC(=O)c1ccccc1 [acetophenone]	alcohol dehydrogenase from L. brevis (Levilactobacillus brevis)	100%
CCOC(=O)CC(=O)CC [3-oxo-n-valeric acid ethyl ester]	alcohol dehydrogenase from L. brevis (Levilactobacillus brevis)	70%
CCOC(=O)C1CCCCC1=O (stereo not drawn)	alcohol dehydrogenase from L. brevis (Levilactobacillus brevis)	13%
CCOC(=O)CCC(C)=O [laevulinic acid ethyl ester]	alcohol dehydrogenase from L. brevis (Levilactobacillus brevis)	92%
